System under test: BRDT BD2 WT (Homo sapiens)
Test details: competitive AlphaLISA
Assay type: binding
pIC50: −log10 of the molar value.
# reported pIC50; entries follow

Molecule	Censoring qualifier	pIC50
CC[C@@H](C(=O)OC(C)(C)C)[C@@H]1N=C(c2ccc(Cl)cc2)c2ccc(OC)cc2-n2c(C)nnc21	=	4.40
C=CC[C@@H](C(=O)OC)[C@@H]1N=C(c2ccc(Cl)cc2)c2ccc(OC)cc2-n2c(C)nnc21 (relative stereo)	=	4.30
COC(=O)[C@H](C)[C@@H]1N=C(c2ccc(Cl)cc2)c2cc(OC)ccc2-n2c(C)nnc21 (relative stereo)	=	5.90
CCNC(=O)[C@H](CC)[C@@H]1N=C(c2ccc(Cl)cc2)c2ccc(OC)cc2-n2c(C)nnc21 (relative stereo)	<	4.00
CC[C@@H](C(=O)OC(C)(C)C)[C@@H]1N=C(c2ccc(Cl)cc2)c2cc(OC)ccc2-n2c(C)nnc21	=	5.20
CC[C@@H](C(=O)OC)[C@@H]1N=C(c2ccc(Cl)cc2)c2ccc(OC)cc2-n2c(C)nnc21 (racemic)	=	5.40
